- SYSTEM_NAME: T1, biotinylated mouse recombinant IL-12Rβ2 (produced in-house) (mouse, UniProt P97378 24-637, random biotinylated)
- T1 construct: Soluble recombinant protein used for panning, ELISA and BLI; also called mIL-12RB2; mIL12RB2
- T1 sequence: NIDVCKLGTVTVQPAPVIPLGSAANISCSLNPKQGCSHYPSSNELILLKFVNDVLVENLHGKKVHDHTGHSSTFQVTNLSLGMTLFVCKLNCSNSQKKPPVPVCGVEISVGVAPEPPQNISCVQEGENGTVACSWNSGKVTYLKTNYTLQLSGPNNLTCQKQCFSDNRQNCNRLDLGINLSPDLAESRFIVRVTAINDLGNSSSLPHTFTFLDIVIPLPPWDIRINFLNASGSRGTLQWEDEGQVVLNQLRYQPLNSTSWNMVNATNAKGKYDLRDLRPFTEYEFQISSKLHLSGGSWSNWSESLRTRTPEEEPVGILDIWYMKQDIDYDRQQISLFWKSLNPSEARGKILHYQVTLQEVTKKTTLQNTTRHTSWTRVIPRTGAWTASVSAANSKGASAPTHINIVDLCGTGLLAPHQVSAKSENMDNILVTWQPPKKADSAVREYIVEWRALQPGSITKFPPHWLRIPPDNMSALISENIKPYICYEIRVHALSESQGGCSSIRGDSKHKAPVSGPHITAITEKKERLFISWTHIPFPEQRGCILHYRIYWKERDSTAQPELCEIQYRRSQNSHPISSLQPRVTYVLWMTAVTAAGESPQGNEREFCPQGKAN
- ASSAY_METHOD_TEXT: ELISA, periplasmic extract on biotinylated mouse IL-12Rβ2; signal over streptavidin control well
PROPERTY_LABEL: mIL12RB2/control (ELISA) (ratio)

BINDER	MEASURED_VALUE
anti-IL-12Rβ2 VHH clone 3CRHS9 (clone ID 20415) (VHH, Tested as periplasmic extract; also called 3CRMS9; not shown: C-terminal HA tag) VHH: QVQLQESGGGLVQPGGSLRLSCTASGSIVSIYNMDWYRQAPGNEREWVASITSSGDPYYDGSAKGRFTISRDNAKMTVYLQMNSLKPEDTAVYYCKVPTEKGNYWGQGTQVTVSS	1.09
anti-IL-12Rβ2 VHH clone 3CAHS41 (clone ID 20394) (VHH, Tested as periplasmic extract; not shown: C-terminal HA tag) VHH: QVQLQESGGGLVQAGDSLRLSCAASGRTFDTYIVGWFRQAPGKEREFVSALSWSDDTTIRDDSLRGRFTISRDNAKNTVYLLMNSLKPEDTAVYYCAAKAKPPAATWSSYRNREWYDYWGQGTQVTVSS	1.35
anti-IL-12Rβ2 VHH clone 3CRH5 (clone ID 20373) (VHH, Tested as periplasmic extract; also called 3CRHS; not shown: C-terminal HA tag) VHH: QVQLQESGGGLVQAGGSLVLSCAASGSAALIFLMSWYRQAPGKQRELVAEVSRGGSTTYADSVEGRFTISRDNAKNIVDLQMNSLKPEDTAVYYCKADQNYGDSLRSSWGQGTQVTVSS	0.81
anti-IL-12Rβ2 VHH clone 3CRHS54 (clone ID 20422) (VHH, Tested as periplasmic extract (P.E.) from the pMECS vector; not shown: C-terminal HA tag) VHH: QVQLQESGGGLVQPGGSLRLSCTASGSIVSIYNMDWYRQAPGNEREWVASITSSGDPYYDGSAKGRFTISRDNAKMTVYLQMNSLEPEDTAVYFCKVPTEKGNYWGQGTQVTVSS	1.25
